# System: MCF7 breast
# assayComment: NCI tumour cell line growth inhibition, 48 h
Quick reference for GI50 among some molecules

CCCCCCCC(=O)OCC/C=C/C1OC1C1OC(=O)/C=C\C=C\C(=O)N(C(C)=O)C(=O)/C=C(/C)CCC2OC2C1OC(=O)NC(C)=O (stereo not drawn)	1.7 µM

Entry `C[C@@]1(F)[C@H](O)[C@@H](CO)O[C@H]1n1ccc(=O)[nH]c1=O` ; GI50 = > 100 µM

Entry `Cc1ccc(/C(=N/Nc2ccc([N+](=O)[O-])cc2)Sc2cc(Cl)c(C)cc2S(N)(=O)=O)cc1` ; GI50 = 2.6 µM

###

# Tested on: U251 CNS
# assayComment: NCI tumour cell line growth inhibition, 48 h
Quick reference for TGI among some molecules

Clc1ccccc1C(Nc1cnccn1)Nc1cnccn1	> 100 µM
CCOc1ccc(NC(=O)/C(CC(=O)c2c[n+](=O)c3ccccc3n2[O-])=N\OCCCc2ccccc2)cc1	> 100 µM
COC(=O)c1sc(=O)sc1SCc1cccc(CSc2sc(=O)sc2C(=O)OC)c1	34.3 µM
NC(=O)CCC(N=c1c2ccccc2n(O)c2ccccc12)C(=O)O (stereo unspecified)	> 100 µM
Cn1c(COC(=O)NCCn2ccnc2)nc2c(N3CCOCC3)nc(-c3ccccc3)nc21	2.87 µM

// next item, TGI requested
Entry `Cc1nc(NC(C)(CO)CO)nc(N/N=C/c2ccc(Cl)cc2)c1C(=O)Nc1ccc(Cl)cc1` ; TGI = > 100 µM
